Values were extracted from patent US20090306373A1.

# Test system: alpha-MyHC
# test name: alpha-MyHC cytoblot in neonatal rat ventricular myocytes (NRVM)
# Type: cell-based
# condition summary: Table 2, 72 hours, fitted maximum, percent fraction of low control (vehicle), in %
# Description: In vitro activity of each compound is measured using the alpha-MyHC cytoblot process. […] Following incubation with the secondary antibody, wells are washed and incubated in SuperSignal, West Dura HRP-luminescence substrate for 30 seconds under shaking at room temperature. Luminescence is measured using a Packard Fusion plate reader. […] Max Plateau is the […] maximum value determined by the dose response fit.
measured endpoint: Max Plateau

> print(dat)
                                   compound  measured.value
1  CCC1=C(C(=O)OC)C(c2ccccc2)c2c(sc(C(=O)c3cccc(C#N)c3)c2N)N1 (centres unmarked)          290.53
2  CCOC(=O)C1=C(CC)Nc2sc(C(=O)c3cc(C(F)(F)F)cc(C(F)(F)F)c3)c(N)c2C1c1ccccc1 (centres unmarked)          207.18
3  CCC1=C(C(=O)OC)C(c2cccc(Cl)c2F)c2c(sc(C(=O)c3cccc([N+](=O)[O-])c3)c2N)N1 (centres unmarked)          243.78
4  CCC1=C(C(=O)OCC(C)C)C(c2ccccc2)c2c(sc(C(=O)c3ccc(Cl)c(Cl)c3)c2N)N1 (centres unmarked)          232.35
5  CCOC(=O)C1=C(CC)Nc2sc(C(=O)c3ccc(Cl)c(Cl)c3)c(N)c2C1c1ccncc1Cl (centres unmarked)          261.04
6  COC(=O)C1=C(C(C)C)Nc2sc(C(=O)c3ccc(Cl)c(Cl)c3)c(N)c2C1c1ccccc1 (centres unmarked)          107.57
7  CCC1=C(C(=O)OC)C(c2cc(F)cc(F)c2)c2c(sc(C(=O)c3ccc(F)c(F)c3)c2N)N1 (centres unmarked)          262.16
8  CCC1=C(C(=O)OC)C(c2ccccc2F)c2c(sc(C(=O)c3cccc(C#N)c3)c2N)N1 (centres unmarked)          279.90

====

# Test system: alpha-MyHC
# test name: alpha-MyHC cytoblot in neonatal rat ventricular myocytes (NRVM)
# Type: cell-based
# condition summary: Table 2, 72 hours, fitted maximum, percent fraction of low control (vehicle), in %
measured endpoint: Max Plateau

> print(dat)
                                   molecule  measured.endpoint  measured.value
1  CCC1=C(C(=O)OC)C(c2cccc(Cl)c2F)c2c(sc(C(=O)c3ccc(Cl)c(Cl)c3)c2N)N1 (stereo not shown) [Compound 155]        Max Plateau          224.86
2  COC(=O)C1=C(CCc2ccccc2)Nc2sc(C(=O)c3ccc(Cl)c(Cl)c3)c(N)c2C1c1ccccc1F (stereo not shown) [Compound 154]        Max Plateau          125.87
3  COC(=O)C1=C(C2CC2)Nc2sc(C(=O)c3ccc(Cl)c(Cl)c3)c(N)c2C1c1ccccc1F (stereo not shown) [Compound 144]        Max Plateau          187.17
4  CCC1=C(C(=O)OC)C(c2ccccc2F)c2c(sc(C(=O)c3ccc(Cl)c(C)c3)c2N)N1 (stereo not shown) [Compound 150]        Max Plateau          228.28
5  COCC1=C(C(=O)OC)C(c2ccccc2)c2c(sc(C(=O)c3ccc(Cl)c(Cl)c3)c2N)N1 (stereo not shown) [Compound 120]        Max Plateau          140.79
6  COCCOC(=O)C1=C(C)Nc2sc(C(=O)c3ccc(Cl)c(Cl)c3)c(N)c2C1c1ccccc1 (stereo not shown) [Compound 119]        Max Plateau          234.93
7  COC(=O)C1=C(C2CC2)Nc2sc(C(=O)c3ccc(Cl)c(Cl)c3)c(N)c2C1c1ccccc1 (stereo not shown) [Compound 133]        Max Plateau          180.24

====

# Tested on: alpha-MyHC
# test name: alpha-MyHC cytoblot in neonatal rat ventricular myocytes (NRVM)
# Format: cell-based
# condition summary: Table 2, 72 hours, fitted maximum, percent fraction of low control (vehicle), in %
# Procedure: In vitro activity of each compound is measured using the alpha-MyHC cytoblot process. […] Following incubation with the secondary antibody, wells are washed and incubated in SuperSignal, West Dura HRP-luminescence substrate for 30 seconds under shaking at room temperature. Luminescence is measured using a Packard Fusion plate reader. […] Max Plateau is the […] maximum value determined by the dose response fit.
measured endpoint: Max Plateau

> print(dat)
                                   molecule  measured.endpoint  measured.value
1  CCC1=C(C(=O)OC)C(c2c(F)cccc2F)c2c(sc(C(=O)c3cccc([N+](=O)[O-])c3)c2N)N1 (stereo not shown)        Max Plateau          261.69
2  CCC1=C(C(=O)OC)C(c2ccccc2F)c2c(sc(C(=O)c3cccc([N+](=O)[O-])c3)c2N)N1 (stereo not shown)        Max Plateau          266.63
3  CCC1=C(C(=O)OC(C)CC)C(c2ccccc2F)c2c(sc(C(=O)c3ccc(Cl)c(Cl)c3)c2N)N1 (single isomer, unassigned) [Compound 163]        Max Plateau          224.85
4  CCC1=C(C(=O)OC)C(c2ccccc2F)c2c(sc(C(=O)c3cccc(Cl)c3)c2N)N1 (stereo not shown)        Max Plateau          255.95

====

# Test system: alpha-MyHC
# test name: alpha-MyHC cytoblot in neonatal rat ventricular myocytes (NRVM)
# Type: cell-based
# condition summary: Table 1, 72 hours, fitted maximum, percent fraction of low control (vehicle), in %
measured endpoint: Max Plateau

> print(dat)
                                    compound  measured.value
 1  CCC(=O)C1=C(CC)Nc2sc(C(=O)c3ccc(C#N)cc3)c(N)c2C1c1ccccc1 (stereo not shown) [Compound 112]          266.67
 2  CC(=O)C1=C(C)Nc2sc(C(=O)c3cccnc3)c(N)c2C1c1ccccc1 (stereo not shown) [Compound 5]          286.43
 3  COc1ccc(C2C(C(C)=O)=C(C)Nc3sc(C(=O)c4ccccc4)c(N)c32)cc1 (stereo not shown) [Compound 14]          182.73
 4  CCC(=O)C1=C(CC)Nc2sc(C(=O)c3ccc(Cl)c(Cl)c3)c(N)c2C1c1c(F)cccc1Cl (stereo not shown) [Compound 40]          244.87
 5  CCC(=O)C1=C(CC)Nc2sc(C(=O)c3cccc([N+](=O)[O-])c3)c(N)c2C1c1ccccc1F (stereo not shown) [Compound 97]          247.24
 6  COC(=O)c1cccc(C(=O)c2sc3c(c2N)C(c2ccccc2)C(C(C)=O)=C(C)N3)c1 (stereo not shown) [Compound 62]          279.31
 7  CCCC(=O)C1=C(CCC)Nc2sc(C(=O)c3cc(Cl)ccc3Cl)c(N)c2C1c1ccccc1 (stereo not shown) [Compound 94]          153.83
 8  CCC(=O)C1=C(CC)Nc2sc(C(=O)c3cc(F)cc(F)c3)c(N)c2C1c1ccccc1 (stereo not shown) [Compound 76]          230.70
 9  CCC(=O)C1=C(CC)Nc2sc(C(=O)c3ccccc3Br)c(N)c2C1c1ccccc1 (stereo not shown) [Compound 106]          244.21
10  COc1ccccc1C1C(C(C)=O)=C(C)Nc2sc(C(=O)c3ccccc3)c(N)c21 (stereo not shown) [Compound 18]          215.25
11  CCC(=O)C1=C(CC)Nc2sc(C(=O)c3cccc(Cl)c3)c(N)c2C1c1ccccc1 (stereo not shown) [Compound 66]          306.19
12  CCCC(=O)C1=C(CCC)Nc2sc(C(=O)c3ccc(F)c(F)c3)c(N)c2C1c1ccccc1 (stereo not shown) [Compound 95]          147.01
13  CC(=O)C1=C(C)Nc2sc(C(=O)c3ccncc3)c(N)c2C1c1ccccc1 (stereo not shown) [Compound 10]          210.00
14  CC(=O)C1=C(C)Nc2sc(C(=O)c3ccccc3)c(N)c2C1c1ccccc1 (stereo not shown) [Compound 3]          250.88
15  CCC(=O)C1=C(CC)Nc2sc(C(=O)c3ccc(Cl)c(Cl)c3)c(N)c2C1c1ccccc1C (stereo not shown) [Compound 56]          293.74
16  CCC(=O)C1=C(CC)Nc2sc(C(=O)c3ccc(F)c(F)c3)c(N)c2C1c1ccnc(F)c1 (stereo not shown) [Compound 102]          269.88
17  CC(=O)C1=C(C)Nc2sc(C(=O)c3ccccc3)c(N)c2C1c1cccnc1 (stereo not shown) [Compound 20]          127.35
18  CCC(=O)C1=C(CC)Nc2sc(C(=O)c3ccc(Cl)c(Cl)c3)c(N)c2C1c1ccccc1C(F)(F)F (stereo not shown) [Compound 60]          100.00
19  CCCC(=O)C1=C(CCC)Nc2sc(C(=O)c3ccc(Cl)cc3Cl)c(N)c2C1c1ccccc1F (stereo not shown) [Compound 91]          143.39
20  CCC(=O)C1=C(CC)Nc2sc(C(=O)c3ccc(Cl)c(Cl)c3)c(N)c2C1c1ccccc1Cl (stereo not shown) [Compound 38]          288.93
21  CC(=O)C1=C(C)Nc2sc(C(=O)c3ccccc3)c(N)c2C1c1ccc(Cl)cc1 (stereo not shown) [Compound 21]          193.20
22  CCC(=O)C1=C(CC)Nc2sc(C(=O)c3ccc(Cl)cc3)c(N)c2C1c1ccccc1 (stereo not shown) [Compound 80]          226.13
23  CCC(=O)C1=C(CC)Nc2sc(C(=O)c3cc(Cl)ccc3Cl)c(N)c2C1c1ccccc1 (stereo not shown) [Compound 64]          281.39
24  CCC(=O)C1=C(CC)Nc2sc(C(=O)c3c(Cl)cccc3Cl)c(N)c2C1c1ccccc1F (stereo not shown) [Compound 107]          273.85
25  CC(=O)C1=C(C)Nc2sc(C(=O)c3cccc(Br)c3)c(N)c2C1c1ccccc1 (stereo not shown) [Compound 6]          289.34
26  CCCC(=O)C1=C(CCC)Nc2sc(C(=O)c3ccc(Cl)c(Cl)c3)c(N)c2C1c1ccccc1F (stereo not shown) [Compound 87]          187.66
27  CCC(=O)C1=C(CC)Nc2sc(C(=O)c3ccc(Cl)c(C)c3)c(N)c2C1c1ccccc1 (stereo not shown) [Compound 89]          230.09
28  CCC(=O)C1=C(CC)Nc2sc(C(=O)c3ccc(Cl)c(Cl)c3)c(N)c2C1c1ccccc1[N+](=O)[O-] (stereo not shown) [Compound 59]          152.77
29  CCC(=O)C1=C(CC)Nc2sc(C(=O)c3ccc(Cl)c(Cl)c3)c(N)c2C1c1ccccc1F (racemic) [Compound 39]          272.61
30  CC(=O)C1=C(C)Nc2sc(C(=O)c3ccc(Cl)c(Cl)c3)c(N)c2C1c1ccc(C(F)(F)F)cc1 (stereo not shown) [Compound 48]          190.81
31  CCC(=O)C1=C(CC)Nc2sc(C(=O)c3ccc(Cl)c(Cl)c3)c(N)c2C1c1c(F)cccc1F (stereo not shown) [Compound 63]          230.07
